As shown below, each of these compounds has a reported pEC50 value.
Test system: MCF7
test-description: Cytotoxicity against human MCF7 cells after 96 hrs by sulforhodamine B assay
Type: functional, cell-based
setup-conditions: MCF7, 96 h
Expect pEC50 as a plain number equal to -log10 of the molar concentration.

Worked cases, answers included:
| smiles-str | pEC50 |
| --- | --- |
| CCCC(=O)CC/C=C/C=C/C#CC#C/C=C/C=O | 5.23 |
| CCC[C@@H](O)CC/C=C/C=C/C#CC#C/C=C/CO | 4.69 |
| CCCC(=O)CC/C=C/C=C/C#CC#C/C=C/COC(=O)CCl | 4.57 |

Ask | Tell me the measured pEC50 of "CCC[C@@H](CC/C=C/C=C/C#CC#C/C=C/COC(C)=O)OC(C)=O" , please.
Reply | 4.91

Ask | Note, next up: "CCCC(=O)CC/C=C/C=C/C#CC#C/C=C/COC(C)=O"
Reply | 4.67

Ask | Continue with "C=C(C)[C@@H]1CC[C@]2(C(=O)O)CC[C@]3(C)[C@H](CC[C@@H]4[C@@]5(C)CC[C@H](O)C(C)(C)[C@@H]5CC[C@]43C)[C@@H]12"
Reply | 4.83

Ask | Same read-out for "CCC[C@@H](O)CC/C=C/C=C/C#CC#C/C=C/COC(C)=O" ?
Reply | 4.67

Ask | Param item: "CCCC(=O)CC/C=C/C=C/C#CC#C/C=C/CO"
Reply | 3.63
